Can you tell me GI50 for the items I'm about to list?
- System: ACHN
- Procedure details: NCI tumour cell line growth inhibition, 48 h
Active and inactive are the calls of the source. No stated cut-off is given here; in the data, active = GI50 up to about 1.1 µM and inactive = higher.

Compound: O[C@@H]1C[C@@H]2N[C@@](O)(C[C@@H]2O)[C@H]1O
Experimental target: ACHN
Measured endpoint: GI50
Reported measurement: > 100 µM (inactive)

Compound: COc1cc(/C=N\c2ccc(C(C)C)cc2)cc(OC)c1OC
Experimental target: ACHN
Measured endpoint: GI50
Reported measurement: > 100 µM (inactive)

Compound: CCCCCCC(=O)C/C(CCC(=O)N(Cc1ccccc1)Cc1ccccc1)=N\Nc1ccc([N+](=O)[O-])cc1[N+](=O)[O-]
Experimental target: ACHN
Measured endpoint: GI50
Reported measurement: 27.3 µM (inactive)

Compound: O=C(NN1C(=O)C(Cl)C1c1cccc(O)c1)c1ccccc1O (stereo not given)
Experimental target: ACHN
Measured endpoint: GI50
Reported measurement: > 100 µM (inactive)

Let us move to another entry and its GI50.
Task item: Can you share its GI50? I mean this compound: COc1ccc2c3c1OC1C(=O)C=CC4(O)C(C2)NCC[C@@]314 (stereo not given in full)
Reply: 2.23 µM (inactive)
